# assayText: A CellTox Green Cytotoxicity Assay to monitor cytotoxicity in HEK293 cells - 40 hour (AID 1224871); note: nearly all actives have a fitted effect of over 45% in size
# runConditions: CellTox Green fluorescence; series mostly up to 76.8 µM
Results filed as inconclusive are left out. Activity calls are given as the source filed them. Calls come from the whole dose curve; as a rule, active = well fitted activation curve with a large enough effect in the repeat runs; inconclusive = weak or mixed curves; inactive = flat fitted curve, though single readings scatter.
Use one of these outcomes when replying: Y (active), N (inactive)

What outcome does the record of this test show for `CCCCNCCCC` ?
N

What outcome does the record of this test show for `CCN(CC)C(=O)N(CC)CC` ?
N

What outcome does the record of this test show for CC(C)(C)C1CCCCC1=O (stereo unspecified) ?
N

What outcome does the record of this test show for `NS(=O)(=O)c1cc(-c2nn[nH]n2)c(NCc2cccs2)cc1Cl` ?
N

What outcome does the record of this test show for `NCCCN1CCN(CCCN)CC1` ?
N

What outcome does the record of this test show for `COC(=O)N[C@H](C(=O)N[C@@H](Cc1ccccc1)[C@@H](O)CN(Cc1ccc(-c2ccccn2)cc1)NC(=O)[C@@H](NC(=O)OC)C(C)(C)C)C(C)(C)C` ?
N

What outcome does the record of this test show for `CC(C)(C)c1cccc(O)c1` ?
N

What outcome does the record of this test show for `CC(C)Nc1nc(N)nc(Cl)n1` ?
N

What outcome does the record of this test show for Cc1ccccc1C(=O)Nc1ccc(C(=O)N2CCCC(O)c3cc(Cl)ccc32)c(C)c1 (stereo unspecified) ?
N

What outcome does the record of this test show for CCCCC1CCC(=O)O1 (stereo unspecified) ?
N
